Consider the following sequences and their measured protein stability index readings.
- TEST_PROTOCOL: protein stability index of a GFP-peptide fusion (GPS, HEK-293T) (PSI 1-6); higher = more stable;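 further: 24-mer peptide tiles fused after GFP, lentivirally expressed, FACS-sorted into six equal bins by GFP/DsRed ratio, decoded by Illumina sequencing, PSI is the read-weighted mean bin number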
- CONDITION_CONTEXT: treatment: MLN4924 1 uM, 8 h; c terminus: a fixed tail appended
OUTCOME_MEASURE: protein stability index

RESIDUE_SEQUENCE	OUTCOME_MEASURE	MEASUREMENT
HWNSTIKRKVDTGGFLSESKDCKP [MYBL2]	protein stability index	4.12
RTPLMKAARAGHVCTVQFLISKGA [ANKRD17]	protein stability index	2.46
DREDSPERCSDSDEEKKARRGRSP [CLINT1]	protein stability index	5.34
SGGYWVGMSTIRPNPGFSMLDFLS [APMAP]	protein stability index	2.32
PLSDKGTTPLQLAIIRERSSCVKI [ASB7]	protein stability index	2.81
EDSSRDIREALHELLCCTNVSTKE [INTS4]	protein stability index	3.98
LITIATFQIAANLSMERYALVFGV [SLC19A2]	protein stability index	3.12
VFGTSLTARVIIPLLKDEGFAVKA [GFOD1]	protein stability index	2.34
QQTHNIEKAHECTDCGKAFLKKSQ [ZNF649]	protein stability index	4.02
VTLALFFVLYFLLACWTYGISVPS [CLCN6]	protein stability index	2.98
SDKYPIQDTELPKAEECDTITLNC [EDARADD]	protein stability index	5.26
RLGPLSAEGTTGLAPAGQTSEESR [TNXB]	protein stability index	5.41
DSEEDEKMEEDIKEEEEKDHNEAM [PCMTD1]	protein stability index	5.64
